System: HOP-62 NSCLC
TEST PROTOCOL: NCI-60 one-dose screen, 48 h (100 = growth as untreated, 0 = no growth, -100 = all killed)
REPORTED CONDITIONS: 10 µM unless noted
About 83,000 compounds went through this panel and 20% of them were active in at least one assay; those are over-represented in the sample as a whole.
Could you label it Yes if measured growth is 90% or higher, and No otherwise?

Past entries and their recorded results:
[[record]]
compound = "CN1CCN(c2ccc(Nc3ncc4[nH]c(=O)n(Cc5ccccc5N)c4n3)cc2)CC1"
class = "No"

[[record]]
compound = "CC(=O)O[C@H]1C[C@@]2(C)[C@@H](C[C@@H](O)[C@H]3[C@@]4(C)CC[C@H](N5CCCC5)[C@@H](C)[C@@H]4CC[C@@]32C)/C1=C(\\CCC=C(C)C)C(=O)O"
class = "Yes"

[[record]]
compound = "C=CCNc1nc(O)c(/C=C2\\C=Nc3ncccc32)s1"
class = "No"

[[record]]
compound = "COC(=O)c1c(C)nc(C)c2c1C(=O)C(Br)=C(NCCCCO)C2=O"
class = "Yes"

[[record]]
compound = "Cc1cc(C)n(C(=O)CSc2nc3sc4c(c3c(=O)n2-c2ccccc2)CCCCC4)n1"
class = "Yes"

[[record]]
compound = "Cc1ccc(C(=O)Nc2ccc(CN3CCN(C)CC3)c(C(F)(F)F)c2)cc1C#Cc1cnc(N)c2ccccc12"
class = "No"

[[record]]
compound = "CC(=O)/C(Br)=C/c1ccc(Br)o1"
class = "Yes"

[[record]]
compound = "N#CC1=C(N)Oc2c(ccc3cccnc23)C1c1ccccc1 (centres undefined)"
class = "No"

[[record]]
compound = "O=C(Nc1cccc(Cl)c1)Oc1c(Cl)c(Cl)c(Cl)c(Cl)c1Cl"
class = "No"

[[record]]
compound = "CNC(=O)c1cc(Oc2ccc3nc(NC(=O)c4cc(C(F)(F)F)cc(C(F)(F)F)c4)sc3c2)ccn1"
class = "No"


## Input Does NS(=O)(=O)Oc1cccc(-c2nc3sccn3c2-c2ccccc2)c1 have a reported growth of at least 90%?
## Output No

## Input Does Cn1ccnc1C(=O)/C=C/c1ccc(C(=O)Nc2c(F)c(F)c(F)c(F)c2F)cc1 have a reported growth of at least 90%?
## Output No

----------
Test system: SF-539 CNS
TEST PROTOCOL: NCI-60 one-dose screen, 48 h (100 = growth as untreated, 0 = no growth, -100 = all killed)
REPORTED CONDITIONS: 10 µM unless noted
Compounds without any hit were thinned out: in the full panel of roughly 83,000, 20% have a hit.
ENDPOINT NAME: growth (%)
Give bare numbers, in %.

// solved cases for growth follow
[[record]]
compound = "Cc1ccc(NC(=O)c2ccc(Nc3ncnc4c3cnn4-c3cccc(F)c3)cc2)cc1"
system = "SF-539 CNS"
observed_value = 101

[[record]]
compound = "CCOC(=O)CC1CSC(N/N=C/c2ccc(O)cc2)=N1 (stereo not given)"
system = "SF-539 CNS"
observed_value = 95.3

[[record]]
compound = "CCCCCCCCCCCCCCCCCCOc1ccccc1CC(=O)OCC[N+]1(C)CCCCC1"
system = "SF-539 CNS"
observed_value = 68.6

[[record]]
compound = "C=C(C)[C@@H]1CCC[C@]2(C(=O)OC)CC[C@]3(C)[C@@H](CC[C@@H]4[C@@]5(C)CCCNC(C)(C)[C@@H]5CC[C@]43C)[C@@H]12"
system = "SF-539 CNS"
observed_value = 98.7


Continue with the next compound.
## Input Quick one: growth of CN(C)CCCN(CCC1CCCCC1)CCC1CCCCC1 ?
## Output 49.6
